tested on: HL-60(TB) leukemia; test: NCI-60 one-dose screen, 48 h (100 = growth as untreated, 0 = no growth, -100 = all killed); conditions: 10 µM unless noted
Compounds without any hit were thinned out: in the full panel of roughly 83,000, 20% have a hit. The source made the active and inactive calls. The calls were made as follows: active = growth percent below 10; inactive = the rest.
Measurement Label: growth

A selection of reference data follows.
growth measured on CC1CN(c2oc(-c3ccc([N+](=O)[O-])cc3)nc2C#N)CC(C)O1 (stereo not given) = 95% (inactive)

growth measured on O=C(c1ccc(O)cc1)C1[C@H](c2ccccc2Br)[C@@H](c2ccccc2)NC12C(=O)Nc1ccc(Br)cc12 (stereo not given in full) = 33.6% (inactive)

Continuing:
growth measured on "COc1ccc(-c2cc(C(=O)N=Nc3c(O)[nH]c4ccc(Cl)cc34)c3ccccc3n2)cc1OC" = 109% (inactive)

growth measured on "CC(=O)Nc1ccc(-n2cnc3cc(-c4ccc(O)cc4)ccc32)cc1C" = 26.6% (inactive)

growth measured on "Cc1ccc(C(=O)Nc2cccc(C(=O)NC(=S)Nc3ccc(S(N)(=O)=O)cc3)c2)cc1" = 84.7% (inactive)

====

tested on: HOP-92 NSCLC; assay: NCI-60 one-dose screen, 48 h; conditions: 10 µM
The panel holds about 83,000 compounds, 20% with a hit somewhere; the sample as a whole holds those more often. Calls of active or inactive are those of the source. How the source made its calls: active means growth percent below 10; inactive means the rest.
Bench note: report the call from active, inactive

Look over these answered cases.
What did the test return for "CC1=C(COCCOC(=O)c2ccc(S(=O)(=O)F)cc2)C2=C(C)C3(CC3)[C@@](C)(O)C(=O)C2=C1" ?
active

What did the test return for CC12OOC(C)(OO1)C2CCC(=O)OCCNc1ccnc2cc(Cl)ccc12 (configuration not stated) ?
active

What did the test return for "O=C(/C=C/c1ccc(F)cc1)c1nc2ccccc2n1Cc1ccc(Br)cc1" ?
active

Okay, now this molecule:
What did the test return for "COc1cc2cc(C(=O)N3C[C@@H](CCl)c4c3cc(OC(=O)N3CCN(C(=O)CCC(=O)N5CCN(C)CC5)[C@@H]5CSSC[C@@H]53)c3ccccc43)[nH]c2c(OC)c1OC" ?
inactive

====

tested on: SK-OV-3 ovarian; experiment: NCI-60 one-dose screen, 48 h (100 = growth as untreated, 0 = no growth, -100 = all killed); conditions: 10 µM
About 83,000 compounds went through this panel and 20% of them were active in at least one assay; those are over-represented in the sample as a whole.
Each entry below carries its reported growth.
The answer is to be given in %; state only the numeric part.

A selection of reference data follows.
// returns growth for "C=CC[Se]C(=O)c1cncc(C(=O)[Se]CC=C)c1" with SK-OV-3 ovarian; value = -92.2

// returns growth for "O=C(/C=C/c1ccco1)c1nc2ccccc2n1Cc1ccc(F)cc1" with SK-OV-3 ovarian; value = 85.5

// returns growth for "O=C(/C=C/c1cccc(Br)c1)c1nc2ccccc2n1Cc1ccc(F)cc1" with SK-OV-3 ovarian; value = 81.2

// returns growth for "O=C(/C=C/c1ccc(Cl)cc1Cl)c1nc2ccccc2n1Cc1ccc(F)cc1" with SK-OV-3 ovarian; value = 103

// returns growth for "CC[C@]12C=CCN3CC[C@@]4(c5ccc(OC)cc5N(C)[C@H]4[C@@](O)(C(=O)OC)[C@@H]1OC(=O)CCC[P+](c1ccc(C)cc1)(c1ccc(C)cc1)c1ccc(C)cc1)[C@@H]32" with SK-OV-3 ovarian; value = -81

Next:
// returns growth for "CCOP(=O)(CC(F)(F)C(F)(F)F)OCC" with SK-OV-3 ovarian; value = 111
